Tested on: oxygen radical-forming activity of activated peritoneal exudate cells (PEC) of mice
protocolText: Peak chemiluminescence (CL) test: inhibition of oxygen radical liberation from activated peritoneal exudate cells
Assay type: cell-based
recordedConditions: Mus musculus, 10^-4 Mol substance/l, added at peak of cell activity, read-out: Inhibition in vitro of the oxygen radical liberation, Chemiluminescence Test % inhibition, Pk. CL
propertyName: inhibition at 100 µM (stock) (%)
Respond with the bare value in %.

// below: answered compounds
{"compound": "O=C(c1c(-c2ccccc2)oc2ccccc2c1=O)N1CC[N+]([O-])(Cc2ccccc2)CC1 [Example 5]", "experimentalTarget": "oxygen radical-forming activity of activated peritoneal exudate cells (PEC) of mice", "unitsSymbol": "%", "measuredResult": 12}
{"compound": "COc1ccc(-c2oc3ccccc3c(=O)c2C(=O)N2CCN(C)CC2)cc1 [Example 28]", "experimentalTarget": "oxygen radical-forming activity of activated peritoneal exudate cells (PEC) of mice", "unitsSymbol": "%", "measuredResult": 5}
{"compound": "CCC(=O)Oc1cc(-c2oc3ccccc3c(=O)c2C(=O)N2CCN(c3ccccn3)CC2)cc(OC(=O)CC)c1OC(=O)CC [Example 56]", "experimentalTarget": "oxygen radical-forming activity of activated peritoneal exudate cells (PEC) of mice", "unitsSymbol": "%", "measuredResult": 37}

Attention now shifts to the item below.
Input line: If you can, please state the reported inhibition at 100 µM (stock) value of CC(=O)Oc1cc(-c2oc3ccccc3c(=O)c2C(=O)N2CCN(Cc3ccccc3)CC2)cc(OC(C)=O)c1OC(C)=O [Example 42b] .
Output line: 99

----------
System: oxygen radical-forming activity of activated peritoneal exudate cells (PEC) of mice
protocolText: Peak chemiluminescence (CL) test: inhibition of oxygen radical liberation from activated peritoneal exudate cells
Type: cell-based
recordedConditions: Mus musculus, 10^-4 Mol substance/l, added at peak of cell activity, read-out: Inhibition in vitro of the oxygen radical liberation, Chemiluminescence Test % inhibition, Pk. CL
Protocol: 1. To determine the inhibiting effect on the oxygen radical-forming activity of inflamed cells, the in vitro inhibition of the release of oxygen radicals from activated peritoneal exudate cells (=PEC) of mice was determined in the chemiluminescence (CL) test according to the method of Mueller-Peddinghaus (Int. J. Immunopharmac. 6, 455-466 (1984)). […] In this, three functionally different parameters are detected, the spontaneous CL, the induced CL and the peak CL. […]
propertyName: inhibition at 100 µM (stock) (%)
Numbers only; they are read as %.

{"compound": "O=C(c1c(-c2ccc(O)c(O)c2)oc2ccccc2c1=O)N1CCN(c2ccccn2)CC1", "unitsSymbol": "%", "measuredResult": 75}
{"compound": "CN1CCN(CCCCNC(=O)c2c(-c3ccccc3)oc3ccccc3c2=O)CC1", "unitsSymbol": "%", "measuredResult": 1}

Input line: Sample O=C(NCCc1ccccn1)c1c(-c2cc(O)c(O)c(O)c2)oc2ccccc2c1=O — what was its inhibition at 100 µM (stock)?
Output line: 77

Input line: Now consider COc1ccc(-c2oc3ccccc3c(=O)c2C(=O)N2CCN(c3ccccn3)CC2)cc1OC [Example 32b] .
Output line: 56

Input line: Another compound to look at: O=C(NCCCC[N+]1([O-])CC[N+]([O-])(c2cccc[n+]2[O-])CC1)c1c(-c2ccccc2)oc2ccccc2c1=O (centres unmarked)
Output line: 10

Input line: Okay, and O=C(NCCCCN1CCN(c2ccccn2)CC1)c1c(-c2ccccc2)oc2ccccc2c1=O ?
Output line: 76

Input line: Now consider O=C(c1c(-c2cccc(O)c2)oc2ccccc2c1=O)N1CCN(Cc2ccccc2)CC1 and answer again.
Output line: 85

Input line: Next record, please: CCN(CC)CCNC(=O)c1c(-c2ccccc2)oc2ccccc2c1=O [Example 22b]
Output line: 25

----------
Test system: male mice
protocolText: Determination of the minimum toxic dose
Type: in vivo
recordedConditions: max. dose 300 mg/kg, 24 h
propertyName: Minimal toxic dose mg/kg mouse p.o. (mg/kg)
Only the number, expressed in mg/kg, is required.

{"givenSmiles": "COc1cc(-c2oc3ccccc3c(=O)c2C(=O)OCCN2CCN(c3ccccn3)CC2)cc(OC)c1OC", "experimentalTarget": "male mice", "Minimal toxic dose mg/kg mouse p.o. [mg/kg]": 100}

Next, consider the following molecule.
Input line: Item under review: O=C(NCCCCN1CCN(c2ccccn2)CC1)c1c(-c2ccccc2)oc2ccccc2c1=O . Reported Minimal toxic dose mg/kg mouse p.o.?
Output line: 300
